runDescription: Solubility of the compound in pH 7.4 buffer
Format: physicochemical
Catalogue of solubility readings, one per entry.
quantityKind: solubility

CC1CCN(c2nsnc2N2CCN(C[C@H]3COc4ccccc4O3)CC2)C1=O (some centres undefined) ... 395 µM
O=C1CCCN1c1ncsc1N1CCN(C[C@H]2COc3ccccc3O2)CC1 ... 1130 µM
O=C1CCCN1c1nsnc1N1CCN(C[C@H]2COc3ccccc3O2)CC1 ... 822 µM
CN(C)C(=O)c1nsnc1N1CCN(C[C@H]2COc3ccccc3O2)CC1 ... 719 µM

###

runDescription: Metabolic stability in human hepatocytes assessed as clearance per 10^6 cells at 1 uM
Assay type: ADME, cell-based, Hepatocyte
assaySetup: read-out: CLH
Catalogue of log10 hepatocyte CLint at 1 µM readings, one per entry.
quantityKind: log10 hepatocyte CLint at 1 µM (log10 of the value in µL/min/1e6 cells)

CN(C)C(=O)c1nsnc1N1CCN(C[C@H]2COc3ccccc3O2)CC1 ... 0.24
CC1CCN(c2nsnc2N2CCN(C[C@H]3COc4ccccc4O3)CC2)C1=O (stereo partly drawn) ... 0.80
Cc1c(N2CCNC2=O)c(N2CCN(C[C@H]3COc4ccccc4O3)CC2)nn1C ... 0.26
O=C1CCCN1c1nsnc1N1CCN(C[C@H]2COc3ccccc3O2)CC1 ... 0.91
c1ccc2c(c1)OC[C@H](CN1CCN(c3nsnc3Nc3ccncn3)CC1)O2 ... 1.15
O=C1NCCN1c1nsnc1N1CCN(C[C@H]2COc3ccccc3O2)CC1 ... 0.26
COc1scnc1N1CCN(C[C@H]2COc3ccccc3O2)CC1 ... 1.16
CC1(C)CCN(c2nsnc2N2CCN(C[C@H]3COc4ccccc4O3)CC2)C1=O ... 1.26
